The molecules listed here are annotated with their half-life.
Experiment: Half life in rat at 2 mg/kg, iv
Assay type: ADME, organism-based
Parameters: dose 2 mg/kg, route intravenous
Settings: in vivo
Remember to quote the unit after the number.

QUERY: Reported half-life, molecule CSc1sc(C(=N)N)cc1S(=O)(=O)c1cccc(-c2c(C)cccc2NC(=O)NCCCCCC(=O)O)c1 : ____
RESULT: 12 min

QUERY: Bench note: what half-life did CSc1sc(C(=N)N)cc1S(=O)(=O)c1cccc(-c2c(C)cccc2NC(=O)CCCS(C)(=O)=O)c1 show?
RESULT: 108 min

QUERY: Quick one: half-life for CSc1sc(C(=N)N)cc1S(=O)(=O)c1cccc(-c2cccc(C)n2)c1 ?
RESULT: 120 min

====

Assay: Aqueous solubility at physiological pH
Format: physicochemical
# solubility per entry
Entry rule: numbers only, all in µM.

// below: answered molecules
{"line-notation": "CSc1sc(C(=N)N)cc1S(=O)(=O)c1cccc(-c2c(C)cccc2NC(=O)CCCS(C)(=O)=O)c1", "solubility (µM)": 35}
{"line-notation": "CSc1sc(C(=N)N)cc1S(=O)(=O)c1cccc(-c2c(C)cccc2NC(=O)CCCCC(=O)O)c1", "solubility (µM)": 40}
{"line-notation": "CSc1sc(C(=N)N)cc1S(=O)(=O)c1cccc(-c2cccc(C)n2)c1", "solubility (µM)": 22}

QUERY: Recorded solubility for CSc1sc(C(=N)N)cc1S(=O)(=O)c1cccc(-c2c(C)cccc2NC(=O)CS(C)(=O)=O)c1 , please?
RESULT: 43

QUERY: Which solubility is reported for this molecule? CSc1sc(C(=N)N)cc1S(=O)(=O)c1cccc(-c2c(C)cccc2NC(=O)NCCCCCC(=O)O)c1
RESULT: 39

====

Assay: Volume of distribution in rat at 2 mg/kg, iv
Type: ADME, organism-based
Parameters: dose 2 mg/kg, route intravenous
Conditions: in vivo
Vd by entry:

These recorded examples may help you get a feel for the data.
{"line-notation": "CSc1sc(C(=N)N)cc1S(=O)(=O)c1cccc(-c2c(C)cccc2NC(=O)NCCCCCC(=O)O)c1", "Vd": "2.65 L/kg"}
{"line-notation": "CSc1sc(C(=N)N)cc1S(=O)(=O)c1cccc(-c2cccc(C)n2)c1", "Vd": "15 L/kg"}

Turning now to a further record.
QUERY: Could you tell me which Vd is on file for CSc1sc(C(=N)N)cc1S(=O)(=O)c1cccc(-c2c(C)cccc2NC(=O)CCCS(C)(=O)=O)c1 ?
RESULT: 2.03 L/kg

====

Below, each entry is listed alongside its reported inhibition at 10 µM.
Target: hERG (KCNH2) (Homo sapiens)
Sequence (Q12809 whole entry): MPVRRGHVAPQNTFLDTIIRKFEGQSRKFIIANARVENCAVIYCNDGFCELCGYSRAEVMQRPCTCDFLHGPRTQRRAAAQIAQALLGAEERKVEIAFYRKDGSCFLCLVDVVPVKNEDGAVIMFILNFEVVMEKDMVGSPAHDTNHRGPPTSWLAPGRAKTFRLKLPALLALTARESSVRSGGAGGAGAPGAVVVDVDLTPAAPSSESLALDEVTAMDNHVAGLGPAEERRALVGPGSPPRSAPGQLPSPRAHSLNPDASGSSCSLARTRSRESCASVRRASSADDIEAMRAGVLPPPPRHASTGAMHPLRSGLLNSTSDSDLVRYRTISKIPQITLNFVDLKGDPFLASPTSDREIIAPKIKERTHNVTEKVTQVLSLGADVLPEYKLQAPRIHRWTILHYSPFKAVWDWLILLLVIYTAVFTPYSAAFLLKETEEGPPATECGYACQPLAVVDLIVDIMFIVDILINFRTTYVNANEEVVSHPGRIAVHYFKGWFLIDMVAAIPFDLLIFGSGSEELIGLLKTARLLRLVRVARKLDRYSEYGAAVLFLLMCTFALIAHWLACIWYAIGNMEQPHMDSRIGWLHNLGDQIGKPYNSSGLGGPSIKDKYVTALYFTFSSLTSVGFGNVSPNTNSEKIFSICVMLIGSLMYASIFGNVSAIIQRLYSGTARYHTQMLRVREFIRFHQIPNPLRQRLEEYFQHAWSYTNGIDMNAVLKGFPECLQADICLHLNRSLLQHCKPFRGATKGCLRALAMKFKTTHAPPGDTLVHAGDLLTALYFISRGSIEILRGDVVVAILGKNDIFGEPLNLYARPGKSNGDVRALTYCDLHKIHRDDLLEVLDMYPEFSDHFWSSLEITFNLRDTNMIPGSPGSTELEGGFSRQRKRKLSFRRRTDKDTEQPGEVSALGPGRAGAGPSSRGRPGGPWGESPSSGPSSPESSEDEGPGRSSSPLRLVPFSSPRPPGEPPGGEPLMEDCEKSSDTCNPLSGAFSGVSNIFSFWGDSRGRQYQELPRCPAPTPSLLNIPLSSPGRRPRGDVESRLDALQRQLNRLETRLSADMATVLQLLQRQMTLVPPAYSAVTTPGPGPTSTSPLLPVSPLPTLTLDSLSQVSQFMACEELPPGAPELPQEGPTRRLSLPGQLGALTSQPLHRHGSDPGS
Assay: Inhibition of human ERG at 10 uM by patch clamp assay
Quick reminder: number only, in %, skip the unit.

Record excerpt, results attached:
{"line-notation": "CSc1sc(C(=N)N)cc1S(=O)(=O)c1cccc(-c2cccc(C)n2)c1", "assay-readout": "inhibition at 10 µM", "experimental-result": 66}
{"line-notation": "CSc1sc(C(=N)N)cc1S(=O)(=O)c1cccc(-c2c(C)cccc2NC(=O)NCCc2nn[nH]n2)c1", "assay-readout": "inhibition at 10 µM", "experimental-result": 1}

As a next step, examine the compound that follows.
QUERY: Given the entry CSc1sc(C(=N)N)cc1S(=O)(=O)c1cccc(-c2c(C)cccc2NC(=O)NCCCCCC(=O)O)c1 , report its measured inhibition at 10 µM.
RESULT: 5.8
